Molecular target: Respiratory Syncytial Virus fusion glycoprotein (RSV F) on RSV-A2 virus (Respiratory Syncytial Virus subtype A (RSV-A2))
Test: cell-based or functional assay
observed property: Neutralization IC50 (RSV subtype A)

• ADI-41144 (antibody, V domains shown) VH: EVQLVQSGAEVKKPGGSVKVSCKASGYTFSEYYMHWVRQAPGQGPEWVGRINPKSGRTNYAQNFQGRVTMTRDRSISTVYMDLSRLRSDDTAVYYCARWEVMDYGSGIYYNQDHFDYWGQGTLVTVSS VL: DIRVTQSPSSLSASVGDRVTITCRASQDITNYLAWFQQKPGKAPKSLMYAASTLQSGVPSRFSGSGSGTDFTLTISSLQPEDFATYYCQQYKTYPITFGQGTRLEIK = 0.37 µg/mL
• ADI-41164 (antibody, V domains shown) VH: QVQLVQSGGDLVQPGGSLRLSCAASGFTFSDYEVNWVRQAPGKGLEWLSYISSSGRIIHYADSVRGRFTISRDNAKNSLYLQMNSLRAEDTAVYYCARAAGQWLVTYYYYGMDVWGQGTTVTVSS VL: QSVMTQSPSTLSASVGDTVTITCRASQSIINRLAWYQQKPGKPPKLLIYKSSSSESGVPSKFSGSGSGTEFTLTINSLQPDDFATYYCQHYNSYLYTFGQGTKVEIK = > 25 µg/mL
• ADI-41198 (antibody, V domains shown) VH: EVQLVQSGGVVIQPGGSLRLSCAASGFSFDEYLMHWVRQLPGKGLEWVALISWHGDITYYADSVKGRFTISRDNSRYSLYLQMNSLRSDDTALYYCVKDGWIEGAFNHTFGIGYYFENWGQGTLVTVSS VL: DIVLTQTPSSLSASVGDRVTITCQASQDINNCLNWYQQKPGKAPEVLIFDASNLETGVPLRFSGSGSGTHFTLTISSLQPEDIATYYCQQHENVPLTFGGGTKVEIK = 0.32 µg/mL
• ADI-36681 (antibody, V domains shown) VH: EVQLVESGAEVKKPGESLKISCKASGYSFTRYWIGWVRQMPGKGLEWMGIIFPGDSDTRYCPSFEGQVTISADRSINTAYLQWSSLKASDSAMYYCVTLYTDYDYGAPDHWGQGTLVTVSS VL: DIVLTQSPATLSVSPGERATLSCRASQSLSGDLAWYQQKPGQAPRLLIYATSTRATGIPARFSGSGSGAEFTLTISSLQSEDFAVYYCQQYYDWPLLTFGPGTKVEIK = 0.01 µg/mL
• ADI-41170 (antibody, V domains shown) VH: EVQLLESGGGLIQPGGSLRLSCAASGFTFNNYVMSWVRQAPGKGLEWVAAISSSGVSTYYAASVKGRFTISRDNSKNMLYVQLNSLRAEDTAVYYCAKETGSYYYFDSWGQGTLVTVSS VL: ETTLTQSPSTLSGSVGDRVTITCRASESISSWLAWYQQKPGKAPKLLIYKASNLESGVPSRFSGSGSGTEFTLTISSLQPDDFATYYCQQYNSYLITFGQGTRLEIK = > 25 µg/mL
• ADI-41149 (antibody, V domains shown) VH: QVQLVQSGGGVVQPGRSLRLSCAASGFTFSDYGMHWVRQAPGKGLEWVAVIWFDGSNKNYADSVKGRFTISRDNSMNTLYLQMNNLRAEDTAVYYCARAPYSFWSGYYLDYWGQGSLVTVSS VL: DIVMTQSPATLSVSPGERATLSCRASQSISSNLAWYQQKSGQAPRLLIYGASTRATGIPARFSGSGSGTEFTLTISSLQSEDFAVYSCQQYSKWPQTFGQGTKVEIK = > 25 µg/mL
• ADI-41206 (antibody, V domains shown) VH: EVQLLESGGGLVKPGGSLRLSCAGSGFSFSSYSMNWVRQAPEKGLEWVSSISASSSFINYADSVKGRFIISRDNAKNSLFLQMDSLRAEDTAVYYCARDGVHPGGYIFGGYIDSWGQGTLVTVSS VL: QSVLTQPPSVSGAPGQRVTISCTGSSSNIGAGYDVHWFRQLPGTAPKLLIYGNNNRPSGVPDRFSGSKSGSSASLIITGLQAQDEATYYCQSYDSSLSGYVFGTGTKLTVL = 0.07 µg/mL
• ADI-41182 (antibody, V domains shown) VH: QVQLVQSGAEVKKPGESLKISCQGSGYSFTSYWIGWVRQMPGKDLEWMGIIYPSDSDTRYSPSFQGQVTISVDKSINTAYLQWTSLKASDTAMYYCARCDGAVYWYFDLWGRGTLVTVSS VL: EIVLTQSPATLSVSPGERVTLSCRASRSVSSHLAWYQQKPGQAPRLLMYGASTRATGIPARFSGSGSGTEFTLTISSLQSEDFGVYYCQQYNNWPPALTFGGGTKLEIK = > 25 µg/mL
• ADI-41225 (antibody, V domains shown) VH: EVQLVESGGGLVKPGGSLRLSCAASGFSLSDYYMTWLRQAPGKGLEWVSSIGTTSTYTNYAESVKDRFTISRDNAKNSLYLQMNSLRAEDTAVYYCARDWGFGVERGYFDLWGRGTLVTVSS VL: DIVLTQTPSTLSASVGDRVTITCRASQSISFWLAWYQQKPGKAPKLLIYKASTLESGVPSRFSGRGSGTDFTLTISSLQPDDFATYYCQQYNTYTWTFGQGTKVEIK = > 25 µg/mL
• ADI-41207 (antibody, V domains shown) VH: QVQLVQSGPALVKPTQTLTLTCTFSGFSLSTKGMCVSWIRQPPGKALEWLALIDWDDDKFYSTSLKTRLTISKDTSKNQVVLTMTNMDPVDTATYYCARTLYFYGSGSLSDYCFDYWGQGTPVTVSS VL: QPVLTQPRSVSGSPGQSVTISCTGTSRDVGNYNFVSWYQQHPGKAPKLIIYDVTKRPSGVPDRFSGSKSGNTASLTISGLQAEDEADYYCCSYAGTYTWVFGGGTKVTVL = > 25 µg/mL
